method.description: Phase I study: pharmacokinetic analysis
Type: in vivo, human
cond: human, plasma, oral, 150 mg, 150 mg BID; Day 15; read-out: Cmax
recorded.metric: Cmax

Report Cmax, nothing else, for this molecule: CC(C)Nc1cc(-c2c[nH]c(C(=O)N[C@H](CO)c3cccc(Cl)c3)c2)c(Cl)cn1 326 ng/mL

----------
Test system: Colo205
method.description: Reverse Phase Protein Analysis (RPPA)
Format: cell-based, human
cond: % change from DMSO (matched cell line)
recorded.metric: Avg (mTOR S2448) (%)
Kindly answer with a numeric value in %, unit omitted.

// below: answered compounds
compound: O=C(Nc1ccc2[nH]nc(-c3ccncc3)c2c1)[C@@H]1CCN(CC(=O)N2CCN(c3ccc(-c4ncccn4)cc3)CC2)C1 [SCH772984]
Avg (mTOR S2448) / %: −9.44
--
compound: Cn1nccc1Nc1nccc(-c2ccn([C@H](CO)c3ccc(Cl)c(F)c3)c(=O)c2)n1 [GDC-0994]
Avg (mTOR S2448) / %: −7.36
--
compound: CC(C)Nc1cc(-c2c[nH]c(C(=O)N[C@H](CO)c3cccc(Cl)c3)c2)c(Cl)cn1 [BVD-523]
Avg (mTOR S2448) / %: −23.51

Now for the compound whose Avg (mTOR S2448) we want.
Indicate the recorded Avg (mTOR S2448) value for this compound: Cc1cnc(Nc2ccc(F)cc2Cl)nc1-c1c[nH]c(C(=O)N[C@H](CO)c2cccc(Cl)c2)c1 [Vx-11e] −8.52
